- METHOD DESCRIPTION: Neurotoxicity in ip dosed albino mouse measured after 30 mins by rotarod method
- Assay type: toxicity, organism-based
- MEASUREMENT CONTEXT: in vivo
Rule: TD50 at 0.5 h below 200 mg/kg gives MET. Equal to or above 200 mg/kg gives NOT MET.

O=C1c2ccccc2C(=O)N1c1ccccc1F : NOT MET
O=C1c2ccccc2C(=O)N1c1ccc([N+](=O)[O-])cc1 : MET
O=C1c2ccccc2C(=O)N1c1cccc(F)c1 : MET
O=C1c2ccccc2C(=O)N1c1cccc([N+](=O)[O-])c1 : MET
COc1ccc(N2C(=O)c3ccccc3C2=O)cc1 : MET

Lookup: # strict comparison: is reported TD50 at 0.5 h < 200 mg/kg? input = COc1ccccc1N1C(=O)c2ccccc2C1=O
Found: NOT MET

Lookup: Input O=C1c2ccccc2C(=O)N1c1ccccc1[N+](=O)[O-] ; condition: TD50 at 0.5 h strictly below 200 mg/kg. Does it hold?
Found: NOT MET

###

- Test system: Mus musculus
- METHOD DESCRIPTION: Anticonvulsant activity in ip dosed albino mouse assessed as protection against maximal electroshock-induced seizures after 0.5 hr
- Format: functional
For each record, write down the corresponding ED50.

List the reported ED50 of each compound below.
1. COc1cccc(N2C(=O)c3ccccc3C2=O)c1
2. O=C1c2ccccc2C(=O)N1c1ccc(F)cc1
3. O=C1c2ccccc2C(=O)N1c1ccccc1F

Found:
["> 300 mg/kg", "> 300 mg/kg", "> 300 mg/kg"]

###

- System: Mus musculus
- METHOD DESCRIPTION: Anticonvulsant activity against subcutaneous pentylenetetrazole-induced seizures in albino mouse assessed as onset of seizure time at 30 mg/kg, ip after 0.5 hr
- Format: functional
- MEASUREMENT CONTEXT: route intraperitoneal
Could you please report measured Time for the items listed next?
Answers are plain numbers, in min.

O=C1c2ccccc2C(=O)N1c1ccc(Cl)cc1 : 3

Please report Time for every entry that follows.
1. O=C1c2ccccc2C(=O)N1c1ccc(F)cc1
2. COc1ccc(N2C(=O)c3ccccc3C2=O)cc1
3. O=C1c2ccccc2C(=O)N1c1ccccc1[N+](=O)[O-]
4. COc1ccccc1N1C(=O)c2ccccc2C1=O
5. COc1cccc(N2C(=O)c3ccccc3C2=O)c1

Found:
3
3
2
2.75
3

###

- System: Mus musculus
- METHOD DESCRIPTION: Anticonvulsant activity against subcutaneous pentylenetetrazole-induced seizures in albino mouse assessed as onset of seizure time at 30 mg/kg, ip after 0.5 hr
- Format: functional
- MEASUREMENT CONTEXT: route intraperitoneal
MEASUREMENT LABEL: Time (min)
Give bare numbers, in min.

O=C1c2ccccc2C(=O)N1c1ccccc1 [N-PHENYL-PHTHALIMIDE] : 3.25
O=C1c2ccccc2C(=O)N1c1ccccc1Cl : 1.5

We next turn to a different molecule, shown below.
Record O=C1c2ccccc2C(=O)N1c1ccccc1F ; system Mus musculus; Time = 2
